These entries and their values trace back to patent EP1379283B1.

Quick reference: % Inhibition at 1 µM of the listed items.
molecular target: vasopressin-1 receptor of rat liver cell membranes (rat) (UniProt P30560); assay: competition with 3H-vasopressin-1 antagonist on rat liver membranes, metallopeptide at 1 µM
Sequence (P30560 whole entry): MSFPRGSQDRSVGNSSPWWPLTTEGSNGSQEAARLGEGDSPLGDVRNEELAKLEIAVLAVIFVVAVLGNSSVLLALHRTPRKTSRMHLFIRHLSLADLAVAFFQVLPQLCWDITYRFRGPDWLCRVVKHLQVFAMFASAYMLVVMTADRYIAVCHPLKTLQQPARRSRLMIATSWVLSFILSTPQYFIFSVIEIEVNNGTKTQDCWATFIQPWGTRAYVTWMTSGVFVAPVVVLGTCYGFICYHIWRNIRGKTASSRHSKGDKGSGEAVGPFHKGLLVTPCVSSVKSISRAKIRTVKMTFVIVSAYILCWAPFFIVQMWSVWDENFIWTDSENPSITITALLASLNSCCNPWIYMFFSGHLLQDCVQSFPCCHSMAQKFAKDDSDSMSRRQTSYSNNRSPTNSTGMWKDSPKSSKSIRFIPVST
Square brackets hold non-standard residues; d marks the D form. Ends that are not written are not given here. * marks the point of attachment. Cyclohexylacetyl(1-SH) = O=C(CC1(S)CCCCC1)*; Cyclohexylacetyl = O=C(CC1CCCCC1)*; dChg = N[C@@H](C(=O)O)C1CCCCC1; Chg = N[C@H](C(=O)O)C1CCCCC1; Orn = NCCC[C@H](N)C(=O)O; Dap = NC[C@H](N)C(=O)O
API: value field is a number in %; no unit string.

The examples below pair each entry with its known result.
>  <BINDER>
[Chg][dW]CIT[Dap]AP[Orn]-NH2 (not fully specified (bridges); printed as Re-complexed Chg-D-Trp-Cys-Ile-Thr-Dap-Ala-Pro-Orn-NH2; also: Cys3 complexed to rhenium-oxo (Re=O)) [Re-complexed Chg-D-Trp-Cys-Ile-Thr-Dap-Ala-Pro-Orn-NH2]

>  <OBSERVED VALUE>
0

$$$$
>  <BINDER>
Cyclohexylacetyl-[dW]IT[Dap]ACP[Orn]-NH2 (not fully specified (bridges); printed as Caca-D-Trp-Ile-Thr-*Dap-Ala-Cys*-Pro-Orn-NH₂; numbers in words are those of the source; also: Cys7 complexed to rhenium-oxo (Re=O)) [Re-complexed Caca-D-Trp-Ile-Thr-Dap-Ala-Cys-Pro-Orn-NH2]

>  <OBSERVED VALUE>
0

$$$$
>  <BINDER>
Cyclohexylacetyl-[dW]ITC[Dap]AP[Orn]-NH2 (not fully specified (bridges); printed as Caca-D-Trp-*Ile-Thr-Cys*-Dap-Ala-Pro-Orn-NH₂; numbers in words are those of the source; also: Cys5 complexed to rhenium-oxo (Re=O)) [Re-complexed Caca-D-Trp-Ile-Thr-Cys-Dap-Ala-Pro-Orn-NH2]

>  <OBSERVED VALUE>
0

$$$$
>  <BINDER>
[dChg][dW]CIT[Dap]AP[Orn]-NH2 (bridge (positions not given here); not fully specified (bridges); printed as Re-complexed D-Chg-D-Trp-Cys-Ile-Thr-Dap-Ala-Pro-Orn-NH2; also: oxorhenium(V) metal complex) [Re-complexed D-Chg-D-Trp-Cys-Ile-Thr-Dap-Ala-Pro-Orn-NH2]

>  <OBSERVED VALUE>
8

$$$$

Which % Inhibition at 1 µM is listed for {Cyclohexylacetyl(1-SH)}-[dW]CIT[Dap]AP[Orn]-NH2 (not fully specified (bridges); printed as *Pmp-D-Trp-Cys*-Ile-Thr-Dap-Ala-Pro-Orn-NH₂; numbers in words are those of the source; also: Cys3 complexed to rhenium-oxo (Re=O)) [Re-complexed Pmp-D-Trp-Cys-Ile-Thr-Dap-Ala-Pro-Orn-NH2] ?
23

Which % Inhibition at 1 µM is listed for Cyclohexylacetyl-[dW]IT[Dap]AAC[Orn]-NH2 (numbers in words are those of the source; also: rhenium-oxo (Re(V)=O) complex at Cys8) [Re-complexed Caca-D-Trp-Ile-Thr-Dap-Ala-Ala-Cys-Orn-NH2] ?
0
